# study target: UniProtKB P08483
# Sequence (P08483 whole entry): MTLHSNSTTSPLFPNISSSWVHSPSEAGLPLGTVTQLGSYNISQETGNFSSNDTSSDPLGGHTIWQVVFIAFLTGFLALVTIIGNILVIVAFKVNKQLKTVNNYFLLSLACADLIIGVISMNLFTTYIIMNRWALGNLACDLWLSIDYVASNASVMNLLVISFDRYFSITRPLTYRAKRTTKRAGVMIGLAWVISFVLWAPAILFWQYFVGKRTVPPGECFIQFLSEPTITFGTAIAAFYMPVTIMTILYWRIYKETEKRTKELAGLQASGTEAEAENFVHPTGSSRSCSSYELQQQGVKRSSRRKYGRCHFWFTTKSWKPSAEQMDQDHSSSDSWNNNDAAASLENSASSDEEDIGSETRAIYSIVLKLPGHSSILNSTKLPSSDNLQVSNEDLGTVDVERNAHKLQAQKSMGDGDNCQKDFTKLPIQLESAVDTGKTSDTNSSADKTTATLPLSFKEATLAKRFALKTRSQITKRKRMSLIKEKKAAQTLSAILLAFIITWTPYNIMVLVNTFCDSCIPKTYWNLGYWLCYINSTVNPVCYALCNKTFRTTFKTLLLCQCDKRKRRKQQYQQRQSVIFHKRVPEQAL
# test protocol: Inhibition of binding of [3H]N-methylscopolamine to muscarinic acetylcholine receptor M3 of transfected rat A9L cells.
# Format: cell-based
pKi: −log10 of the molar value.
measured property: pKi

Example entries and their recorded answers appear below.
molecule	pKi
CC(C)(C)OC(=O)NCCCCNC(=O)c1ccc(CN2CCN(CC(=O)N3c4ccccc4C(=O)Nc4cccnc43)CC2)cc1	5.46
O=C1Nc2cccnc2N(C(=O)CN2CCN(CCCCN3C(=O)c4ccccc4C3=O)CC2)c2ccccc21	6.92
O=C1Nc2cccnc2N(C(=O)CN2CCN(Cc3ccccc3)CC2)c2ccccc21	6.62
CC(=O)NCCN1CCN(CC(=O)N2c3ccccc3C(=O)Nc3cccnc32)CC1	6.01
CN1CCN(CC(=O)N2c3cc(CO)ccc3C(=O)Nc3cccnc32)CC1	5.36
NCCCC(=O)NCCN1CCN(CC(=O)N2c3ccccc3C(=O)Nc3cccnc32)CC1	4.94
CC(C)(C)OC(=O)NCCCCCCN1CCN(CC(=O)N2c3ccccc3C(=O)Nc3cccnc32)CC1	7.34
CC(C)(C)OC(=O)NCCC(=O)NCCN1CCN(CC(=O)N2c3ccccc3C(=O)Nc3cccnc32)CC1	5.21

I: NCCN1CCN(CC(=O)N2c3ccccc3C(=O)Nc3cccnc32)CC1
II: CC(C)(C)OC(=O)NCCCC(=O)NCCN1CCN(CC(=O)N2c3ccccc3C(=O)Nc3cccnc32)CC1
III: Cc1scc2c1N(C(=O)CN1CCN(C)CC1)c1ccccc1NC2=O [TELENZEPINE]
Exam item: In this exercise, place the 3 molecules in ascending sequence of their recorded pKi. To answer, arrange all of the labels according to the requested order.
Marked response: II, I, III

====

# study target: Muscarinic acetylcholine receptor M2 (Rattus norvegicus)
# Sequence (P10980 whole entry): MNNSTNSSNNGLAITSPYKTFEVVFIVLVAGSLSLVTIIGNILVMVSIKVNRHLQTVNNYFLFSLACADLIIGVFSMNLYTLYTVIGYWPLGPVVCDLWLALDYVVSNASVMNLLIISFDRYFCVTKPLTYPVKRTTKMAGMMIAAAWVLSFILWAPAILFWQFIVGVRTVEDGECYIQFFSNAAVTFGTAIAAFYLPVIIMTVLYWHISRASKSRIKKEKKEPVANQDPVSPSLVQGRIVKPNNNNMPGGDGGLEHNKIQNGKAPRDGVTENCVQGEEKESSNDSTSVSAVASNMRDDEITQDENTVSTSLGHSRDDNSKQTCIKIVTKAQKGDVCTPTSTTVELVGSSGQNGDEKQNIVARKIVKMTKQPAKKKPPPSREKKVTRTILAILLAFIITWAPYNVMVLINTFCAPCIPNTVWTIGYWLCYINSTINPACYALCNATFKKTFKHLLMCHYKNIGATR
# test protocol: Inhibition of binding of [3H]N-Methyl-scopolamine to Muscarinic acetylcholine receptor M2 of rat heart tissue membranes.
# Format: cell membranes, Membrane
measured property: Ki (nM)

Use the examples below as a reference point.
NCCCCCCCCN1CCN(CC(=O)N2c3ccccc3C(=O)Nc3cccnc32)CC1 26
NCCCCCCCCCN1CCN(CC(=O)N2c3ccccc3C(=O)Nc3cccnc32)CC1 24
NCCCCCCCN1CCN(CC(=O)N2c3ccccc3C(=O)Nc3cccnc32)CC1 57

P: O=C1Nc2cccnc2N(C(=O)CN2CCN(CCCCCCN3C(=O)c4ccccc4C3=O)CC2)c2ccccc21
Q: CC(=O)NCCCCCCCCCCN1CCN(CC(=O)N2c3ccccc3C(=O)Nc3cccnc32)CC1
R: NCCCCCCCCCCN1CCN(CC(=O)N2c3ccccc3C(=O)Nc3cccnc32)CC1
Exam item: Arrange by Ki, high to low. Answer format: the labels, in the requested order.
Marked response: Q, P, R

a: CCN(CC)CCCCCCCCCCN1CCN(CC(=O)N2c3ccccc3C(=O)Nc3cccnc32)CC1
b: COc1ccccc1CNCCCCCCCCCCN1CCN(CC(=O)N2c3ccccc3C(=O)Nc3cccnc32)CC1
Exam item: Identify the entry with the larger Ki. Options: a and b Response format: the label of the selected entry.
Marked response: b
(b: 22 nM, a: 13.5 nM)

====

# study target: Muscarinic acetylcholine receptor M1 (Rattus norvegicus, UniProt P08482)
# Sequence (P08482 whole entry): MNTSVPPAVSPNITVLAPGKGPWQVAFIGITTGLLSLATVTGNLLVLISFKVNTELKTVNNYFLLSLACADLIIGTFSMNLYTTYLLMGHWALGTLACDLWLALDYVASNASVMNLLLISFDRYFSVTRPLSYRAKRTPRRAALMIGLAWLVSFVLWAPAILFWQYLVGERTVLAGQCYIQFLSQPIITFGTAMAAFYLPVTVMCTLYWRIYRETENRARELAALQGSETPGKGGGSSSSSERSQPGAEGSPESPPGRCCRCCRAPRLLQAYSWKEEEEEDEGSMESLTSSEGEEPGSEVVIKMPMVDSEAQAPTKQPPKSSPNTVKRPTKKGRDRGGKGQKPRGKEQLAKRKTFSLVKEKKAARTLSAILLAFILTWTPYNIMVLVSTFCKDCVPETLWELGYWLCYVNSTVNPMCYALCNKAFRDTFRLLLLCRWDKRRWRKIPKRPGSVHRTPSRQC
# test protocol: Inhibition of binding of [3H]N-Methyl-scopolamine to Muscarinic acetylcholine receptor M1 of transfected A9L cells.
# Type: cell-based
measured property: Ki (nM)

Example entries and their recorded answers appear below.
NCCCCCCCCCN1CCN(CC(=O)N2c3ccccc3C(=O)Nc3cccnc32)CC1 24
O=C1Nc2cccnc2N(C(=O)CN2CCN(CCCl)CC2)c2ccccc21 52

I: NCCCCCCCN1CCN(CC(=O)N2c3ccccc3C(=O)Nc3cccnc32)CC1
II: COc1ccccc1CNCCCCCCCCCCN1CCN(CC(=O)N2c3ccccc3C(=O)Nc3cccnc32)CC1
Exam item: Which of these two has the smaller recorded Ki: I or II ? // respond with label for picked entry
Marked response: II

a: CC(=O)NCCCCCCCCCCN1CCN(CC(=O)N2c3ccccc3C(=O)Nc3cccnc32)CC1
b: NCCCCCCCCN1CCN(CC(=O)N2c3ccccc3C(=O)Nc3cccnc32)CC1
Exam item: Recorded Ki values differ for a and b ; which one is higher? Record your answer as the label of the chosen record.
Marked response: a

1: O=C1Nc2cccnc2N(C(=O)CN2CCN(CCCCCCN3C(=O)c4ccccc4C3=O)CC2)c2ccccc21
2: CC(=O)NCCCCCCCCCN1CCN(CC(=O)N2c3ccccc3C(=O)Nc3cccnc32)CC1
Exam item: Out of 1 and 2 , name the one with the higher Ki. Return value: the label identifying the chosen record.
Marked response: 2
(2: 52 nM, 1: 18 nM)

1: CCN(CC)CCCCCCCCCCN1CCN(CC(=O)N2c3ccccc3C(=O)Nc3cccnc32)CC1
2: NCCCCCCCCCCN1CCN(CC(=O)N2c3ccccc3C(=O)Nc3cccnc32)CC1
Exam item: // pick larger Ki from pair: 1 vs 2 State your choice using its label.
Marked response: 2
